Below: a set of entries, each annotated with reported pIC50.
Molecular target: NDM-1 (Klebsiella pneumoniae, UniProt C7C422)
Sequence (C7C422 29-270 limits assumed): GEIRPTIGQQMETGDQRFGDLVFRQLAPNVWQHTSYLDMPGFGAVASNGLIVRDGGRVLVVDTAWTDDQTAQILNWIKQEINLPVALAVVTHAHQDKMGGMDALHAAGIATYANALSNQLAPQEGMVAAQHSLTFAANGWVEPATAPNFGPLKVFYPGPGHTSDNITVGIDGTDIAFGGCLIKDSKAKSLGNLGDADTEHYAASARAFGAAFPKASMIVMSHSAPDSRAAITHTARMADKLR
pIC50: −log10 of the molar value.
readoutLabel: pIC50

[
  {
    "compound": "COP(=O)(CCSC(C)=O)N(C)Cc1ccccn1 (racemic)",
    "recordedResult": 3.45
  },
  {
    "compound": "COP(=O)(CCSC(C)=O)N(Cc1ccccn1)Cc1ccccn1 (racemic)",
    "recordedResult": 3.37
  }
]

----------
Experiment: in vitro
Type: cell-based
Conditions: human; cell viability after 24 hours incubation, at least two independent experiments; read-out: Cytotoxicity IC50 in HeLa cells
pIC50: −log10 of the molar value.
The compounds listed here are annotated with their pIC50.

[
  {
    "compound": "COP(=O)(CCSC(C)=O)N(Cc1ccccn1)Cc1ccccn1 (racemic)",
    "qual": "<",
    "pIC50": 3.30
  },
  {
    "compound": "CCOP(=O)(NCc1ccccn1)C(CSC(C)=O)Cc1ccccc1 (racemic)",
    "qual": "=",
    "pIC50": 3.70
  },
  {
    "compound": "CCO[P@](=O)([C@@H](CSC(C)=O)Cc1ccccc1)N(Cc1ccccn1)Cc1ccccn1 (racemic)",
    "qual": "=",
    "pIC50": 4.16
  },
  {
    "compound": "COC(=O)[C@H](NP(=O)(CCSC(C)=O)OC)c1ccccc1 (mixture of isomers)",
    "qual": "<",
    "pIC50": 3.30
  },
  {
    "compound": "CCO[P@](=O)([C@@H](CSC(C)=O)Cc1ccccc1)N(C)Cc1ccccn1 (racemic)",
    "qual": "=",
    "pIC50": 4.04
  }
]
